Values from patent US20220177589A1

Target: chimeric BTLA of humanised-BTLA mice (human extracellular region, murine transmembrane and signaling … (human; mouse, UniProt Q7TSA3 184-306, limits assumed)
Sequence (Q7TSA3 other isoform, or with tags, fused parts or gaps mutant limits assumed): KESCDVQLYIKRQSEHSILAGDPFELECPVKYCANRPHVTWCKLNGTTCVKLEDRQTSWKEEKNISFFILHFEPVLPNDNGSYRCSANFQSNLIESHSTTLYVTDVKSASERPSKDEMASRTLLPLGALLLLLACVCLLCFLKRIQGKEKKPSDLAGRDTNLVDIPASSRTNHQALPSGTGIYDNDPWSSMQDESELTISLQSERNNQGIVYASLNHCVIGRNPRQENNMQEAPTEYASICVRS
Experiment: cell-based or functional assay
ASSAY READOUT: AntiCD3/CD28 (CD4 T cell proliferation) repeat 1, % inhibition (%)

| BINDER | READOUT NUMBER |
| --- | --- |
| 12F11 (antibody, IgG1, V domains shown) VH: EVQLQQSGPELVKPGASVKISCKASGYTFTDYYMNWVKQSHGKSLEWIGDINPNNGGTSYNQKFKGKATLTVDKSSSTAYMELRSLTSEDSAVYYCARWRQLRSDYWGQGTTLTVSS VL: DIQMTQSPASQSASLGESVTITCLASQTIGTWLAWYQQKPGKSPQLLIYAATSLADGVPSRFSGSGSGTKFSFKISSLQAEDFVSYYCQQLYSTPLTFGAGTKLELK | 5 |
| 4H4 (antibody, IgG1, V domains shown) VH: QVQLQQSGAELARPGASVKLSCKASGYTFTSYGISWVKQRTGQGLEWIGEIYPRSGNTYYNEKFKGKATLTADKSSSTAYMELRSLTSEDSAVYFCARRRGAGDGFDYWGQGTTLTVSS VL: DIQMTQTTSSLSASLGDRVTISCSASQGISNYLNWYQQKPDGTVKLLIYYTSSLHSGVPSRFSGSGSGTDYSLTISNLEPEDIATYYCQQYSKLPFTFGSGTKLEIK | 14 |
